# Tested on: Hs-578T
# PROTOCOL DETAILS: NCI tumour cell line growth inhibition, 48 h
Activity calls are given as the source filed them. Rule as the data show it: active = GI50 up to about 1.1 µM and inactive = higher.
The categories you may choose from are true (1) (active), false (0) (inactive)

| COMPOUND | CLASS NAME |
| --- | --- |
| O=C(O)c1c2c(cc3c1CC1(Cc4cc5c(cc4C1=O)CCC5)C3)CCC2 (stereo not drawn) | false (0) |
| O=C1C=C(Br)C(=O)C12CCc1ccccc12 (stereo not drawn) | false (0) |
| COCCN1C(=O)C2c3[nH]c4ccccc4c3C3CCC(C(C)(C)C)CC3C2C1=O (stereo not drawn) | false (0) |
| CCOP1(=O)CC(C)=C(Cl)C(OC)C1 (stereo not drawn) | false (0) |
| CC1(C)O[C@H]2OC(CO[Si](C)(C)C(C)(C)C)C(N=[N+]=[N-])[C@H]2O1 (stereo partly drawn) | false (0) |

Req: Call for entry COc1cc(NCC2COc3c(ccc(OC)c3OC)C2=O)c([N+](=O)[O-])cc1OC (stereo not drawn) :
Resp: false (0)

Req: In this assay, the call recorded for CSc1c([S+](C)[O-])c2ccccc2n1C (stereo not drawn) was what?
Resp: false (0)

Req: What call does the record list for CCOC(=O)C1(C(=O)OCC)C=C(c2ccccc2)N(C2OC(COC(C)=O)C(OC(C)=O)C(OC(C)=O)C2OC(C)=O)C1=S (stereo not drawn) ?
Resp: false (0)

Req: Would you mind telling me which call this test gave `C=CC[C@@]1([C@H](C=C)COCc2ccc(OC)cc2)CC[C@]2(C)OC(C)(C)[C@@H](c3ccccc3)N2C1=S` ?
Resp: false (0)

###

# Tested on: SK-OV-3
# PROTOCOL DETAILS: NCI tumour cell line growth inhibition, 48 h
Active and inactive are the calls of the source. Rule as the data show it: active = GI50 up to about 1.1 µM and inactive = higher.
// one of active, inactive, no free text

Worked cases, answers included:
| MOLECULE | CLASS NAME |
| --- | --- |
| CC1OC(OC2C(CO)OC(O[C@H]3CC[C@@]4(C)C(=CC[C@H]5[C@@H]6C[C@@H]7O[C@](O)(CC[C@@H](C)COC8OC(CO)C(O)C(O)C8O)[C@@H](C)[C@@H]7[C@@]6(C)CC[C@@H]54)C3)C(OC3OC(C)C(O)C(O)C3O)C2O)C(O)C(O)C1O (stereo partly drawn) | inactive |
| CC(C)(C)C(=O)C(C(=O)c1ccccc1)C(=O)C(C)(C)C | inactive |
| Cc1ccsc1/C=N/Nc1ccc2ccccc2n1 | inactive |
| Cc1ccccc1C(=O)c1ccccc1O | inactive |
| CN(CO)c1nc(N(C)CO)nc(N(C)CO)n1 | inactive |

Req: Which outcome did this test record for the molecule `C1=N\c2ccc(cc2)-c2ccc(cc2)/N=C\c2ccc(cc2)OCc2cccc(n2)COc2ccc/1cc2` ?
Resp: inactive

Req: So what was the verdict on `CC(=O)Nc1ccc(/C=C/c2ccc(NC(=O)Nc3ccc(/C=C/c4ccc(NC(C)=O)cc4S(=O)(=O)O)c(S(=O)(=O)O)c3)cc2S(=O)(=O)O)c(S(=O)(=O)O)c1` in this test?
Resp: inactive

Req: What classification did `C=CCN1C[C@@H](C)N([C@@H](c2ccccc2)c2ccc(C(=O)N(CC)CC)cc2)C[C@@H]1C` end up with in this test?
Resp: inactive

Req: Hi, sorry to bother you, what did the test record for `C[n+]1cccc(/C=C/c2ccc3cccc(O)c3n2)c1` ?
Resp: inactive

###

# Test system: COLO 205
# PROTOCOL DETAILS: NCI tumour cell line growth inhibition, 48 h
Activity calls are given as the source filed them. Rule as the data show it: active = GI50 up to about 1.1 µM and inactive = higher.
The compounds listed here are annotated with their GI50.

Solved entries:
| COMPOUND | GI50 |
| --- | --- |
| CCCCCCCCCCCCCCCCCC(=O)O[C@H](COC(=O)CCCCCCCCCCC)COC(=O)CCCCCCCCCCCCCCC | > 100 µM (inactive) |
| COC1(OC)C2C=CC1C([C@](C)(N)CO)C2 (some centres not stated) | > 100 µM (inactive) |
| CCCCCCCCCCSC(=O)NC | 34.9 µM (inactive) |
| COc1ccc(C2C3CCc4ccccc4C3=NN2S(=O)(=O)c2ccc(Cl)cc2)cc1 (configuration not stated) | 6.01 µM (inactive) |

Let us examine a further case.
Req: What value of GI50 has been reported for the following compound? CCOC(=O)C(=CNc1ccc(NC2=NCC(C)S2)cc1)C(=O)OCC (configuration not stated)
Resp: 35.6 µM (inactive)

###

# Tested on: UO-31
# PROTOCOL DETAILS: NCI tumour cell line growth inhibition, 48 h
The source made the active and inactive calls. No stated cut-off is given here; in the data, active = GI50 up to about 1.1 µM and inactive = higher.
Classes to choose from: active, inactive

Reference set (8 entries):
| MOLECULE | CLASS NAME |
| --- | --- |
| CC(C)(C)c1cc(C(C)(C)C)c2sc(=S)oc2c1O | inactive |
| C[B@@-]1(c2ccc(C(F)(F)F)cc2)N[C@@H](Cc2ccccc2)C(=O)O1 | inactive |
| COc1ccc(C(=O)CCN(C)C)c2ccccc12 | inactive |
| CC(C)(C)C(=O)C(C(=O)c1ccccc1)C(=O)C(C)(C)C | inactive |
| CC(=O)C(=NNc1ccc(-n2c(C)nc3ccccc3c2=O)cc1)C(C)=O | inactive |
| COc1cc2c(cc1OC)C13CCN4CC5CCOC6CC(=O)N2C1C6C5CC43 (stereo unspecified) | inactive |
| CCCCCCCCCC[C@@H](O)[C@@H]1CC[C@@H]([C@@H]2CC[C@@H]([C@@H](O)CCCCCCCCCCC(O)CC3=CC(C)OC3=O)O2)O1 (stereo partly specified) | active |
| O=C1Oc2ccccc2N/C1=C/C(=O)c1ccc(Cl)cc1 | inactive |

Req: Entry O=C1CC2C(=O)c3ccccc3CC2c2ccccc21 (stereo unspecified) : call = ?
Resp: inactive

Req: Call for entry COc1ccc2oc(S(=O)(=O)N3CC(CCl)c4ccc(N)cc43)cc2c1 (stereo unspecified) :
Resp: inactive

Req: Which result was noted for this molecule in the test: CCOC(=O)C(NC(=O)Nc1ccccc1F)(OC)C(F)(F)F (stereo unspecified)
Resp: inactive

###

# Test system: 786-0
# PROTOCOL DETAILS: NCI tumour cell line growth inhibition, 48 h
Active and inactive are the calls of the source. Cut-off read from the data, not from the text of the source: active = GI50 up to about 1.1 µM and inactive = higher.
MEASURED ATTRIBUTE: GI50

These solved cases illustrate the format of a correct answer.
| MOLECULE | READING |
| --- | --- |
| Nc1nc(O)c([N+](=O)[O-])c(NCCOCP(=O)(O)O)n1 | > 100 µM (inactive) |
| CN(C)/C=N/S(=O)(=O)c1nn2c(C=O)c(-c3cc4ccccc4oc3=O)nc2s1 | 1.92 µM (inactive) |
| O=C1[C@H]2ON(c3ccccc3)C(c3ccc(Cl)cc3Cl)[C@H]2C(=O)N1c1ccc(Cc2ccc(N3C(=O)[C@@H]4ON(c5ccccc5)C(c5ccc(Cl)cc5Cl)[C@@H]4C3=O)cc2)cc1 (stereo not given in full) | > 100 µM (inactive) |
| CS(=O)(=O)c1ccc(/C=N/NC(N)=S)cc1 | > 100 µM (inactive) |

Switching to the query record.
Req: Request the reported GI50 associated with `CNS(=O)(=O)NN(C)S(=O)(=O)c1ccc(C)cc1`
Resp: > 100 µM (inactive)

###

# Test system: NCI-H460
# PROTOCOL DETAILS: NCI tumour cell line growth inhibition, 48 h
Active and inactive are the calls of the source. Rule as the data show it: active = GI50 up to about 1.1 µM and inactive = higher.
Lab note: assign the record to one of true for active, false for inactive

| COMPOUND | CLASS NAME |
| --- | --- |
| O=CNc1ncn[nH]1 | false |

Req: Short answer needed: outcome of this test for `COC(OC)c1cc2c(cc1C=O)OCO2` ?
Resp: false

Req: # outcome recorded in this test, key = `C/C(=N\Nc1nc2ccccc2o1)c1ncccn1`
Resp: true

Req: Record request — test call for `CC1(C)CC2(CC(C)(C)N1O)NC(=O)OC2=O`
Resp: false

Req: Kindly provide the recorded test outcome for the following compound: O=C(O)C(CO)NC(=O)C1C(C(=O)O)C(c2ccccc2[N+](=O)[O-])C=C(c2ccco2)N1c1ccncc1 (configuration not stated)
Resp: false

Req: Hello, I am checking results. What call was entered for CCOC(C)O[C@H]1C(=O)OCC1(C)C (some centres not stated) ?
Resp: false

Req: What outcome does the record of this test show for CCOP(=O)(OCC)C(Nc1ccc(Cl)cc1)c1ccc(F)cc1 (configuration not stated) ?
Resp: false

Req: Just curious, what result did CCC(C)(O)c1cnc(CC(C)C)c(=O)n1O (configuration not stated) get here?
Resp: false

Req: Hi, do you know how `COc1ccc(C(=O)Cc2cc(OC)ccc2OC)cc1` came out in this test?
Resp: false

Req: I would be grateful if you could indicate the recorded call for `Cc1ccccc1C(=O)c1ccccc1O` .
Resp: false

Req: For this compound, state the assay outcome: `Cc1csc(-c2cn(C)c3c2C(=O)C(=N)C=C3O)n1`
Resp: false

Req: For this compound, state the assay outcome: `COCN1C(=O)[C@@H]2CCCN2C(=O)c2ccc(N)cc21`
Resp: false
